- run_description: yeast display, Sf9 membrane polyspecificity reagent, FACS + sequencing; frameworks hold sequencing errors
measured_metric: polyreactivity (PSR sort gate)

• LVQLQESGGGLVQAGGSLRLSCAASGTISPGGYMAWYRQAPCTERELVASINVGGSTNYADSVKGRFTISRDNAKNTVYLQMNSLKPEDNALYYCAVWGRNRLQLSYWGQGTQVTVIS = low polyreactivity
• QVQLVESGGGLVQAGGSLRLICAASGIIFQYYAMGWYRQAPGKERELVAAISWSGGSTYYADSVKGRFTISRDNAKNTVYLQMNSVKPEETAVYYCNAVYYSRIVGVRIYDYWGQGTQVTVSS = low polyreactivity
• QVQLVESGGGLVQARGSLRLSCAASGSTLTRNTMGGYRQAPGKERELVAGITRSGSSTYYADSVKGRFTISRDNAKNTVYLQMNSLKPEDTAVYYCAAPYRYRQNLGYWGQGTQVTVSS = high polyreactivity
• QVQLVESGGGLVHAGGSLRLSCAASGRTFVSYAMGWYRQAPGKERELVAAITNAGSTYYADSVKGRFTISRDNAKNTVYLQMNSLKPEDTAVYYCAATYWDYWGYGYDYWGQGTQVTVSS = high polyreactivity

Kindly review the next sequence as well.
# query: polyreactivity (PSR sort gate) of entry QVQLVESGGGLVQAGGILRLSCAASGSTMGYYPMGWYRQEPGKERELVAAIRYSDGNTYYADSVKGRFTISRDTAKNTVYLQMNSLKPEDTAVYYCAADGGYYGRDYWGQGTQVTVSS
high polyreactivity
